- target system: HIV-1 92UG005 envelope glycoprotein (Env) on pseudovirus (HIV-1)
- experiment: cell-based or functional assay

- binder: "PGT-126 monoclonal antibody (antibody, V domains shown) VH: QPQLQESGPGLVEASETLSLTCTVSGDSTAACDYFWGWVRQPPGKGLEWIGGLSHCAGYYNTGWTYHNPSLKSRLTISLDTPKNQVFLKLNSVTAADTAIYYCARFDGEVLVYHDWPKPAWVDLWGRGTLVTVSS VL: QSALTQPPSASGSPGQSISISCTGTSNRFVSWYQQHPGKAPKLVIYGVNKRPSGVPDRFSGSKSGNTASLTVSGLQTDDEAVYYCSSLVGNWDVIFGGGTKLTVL"
  IC50, pseudovirus neutralization: "0.0181 µg/mL"
- binder: "PGT-136 monoclonal antibody (antibody, V domains shown) VH: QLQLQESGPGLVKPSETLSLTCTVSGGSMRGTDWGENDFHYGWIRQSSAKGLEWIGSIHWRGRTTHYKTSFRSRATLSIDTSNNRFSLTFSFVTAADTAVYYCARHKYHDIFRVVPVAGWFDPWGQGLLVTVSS VL: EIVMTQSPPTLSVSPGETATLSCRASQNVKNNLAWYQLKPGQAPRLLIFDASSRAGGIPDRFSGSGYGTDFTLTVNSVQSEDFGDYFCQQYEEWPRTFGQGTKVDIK"
  IC50, pseudovirus neutralization: "> 10 µg/mL"
- binder: "PGT-125 monoclonal antibody (antibody, V domains shown) VH: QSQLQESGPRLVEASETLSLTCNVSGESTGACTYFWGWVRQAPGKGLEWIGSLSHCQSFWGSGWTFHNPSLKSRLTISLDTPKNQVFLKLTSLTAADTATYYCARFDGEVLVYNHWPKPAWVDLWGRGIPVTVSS VL: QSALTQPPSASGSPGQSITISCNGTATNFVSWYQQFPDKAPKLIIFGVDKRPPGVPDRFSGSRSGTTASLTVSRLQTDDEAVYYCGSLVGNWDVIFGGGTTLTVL"
  IC50, pseudovirus neutralization: "> 10 µg/mL"
